test system: UACC-62; experiment: NCI tumour cell line growth inhibition, 48 h
Calls of active or inactive are those of the source. Rule as the data show it: active = GI50 up to about 1.1 µM and inactive = higher.
GI50 by entry:

See these solved cases before continuing.
- COMPOUND: "C=C1c2nc3ccccc3n2C=C(c2ccccc2)N1c1ccc(Cl)cc1"
  GI50: "19.1 µM (inactive)"
- COMPOUND: "CC[C@H](C)[C@H](NC(=O)[C@H](Cc1ccc(O)cc1)NCC(F)(F)F)C(=O)OC(C)(C)C"
  GI50: "5.69 µM (inactive)"
- COMPOUND: "CC(Cc1ccc(O)c(O)c1)C(C)Cc1ccc(O)c(O)c1 (centres undefined) [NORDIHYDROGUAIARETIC ACID]"
  GI50: "16 µM (inactive)"
- COMPOUND: "COC(=O)CCC(=O)N1CC1C (centres undefined)"
  GI50: "> 100 µM (inactive)"

Could you now consider this next compound?
Query :: I have this compound here, CN(N=O)c1ccc(/C=C/c2ccnc3ccccc23)cc1 , and I need its recorded GI50.
Result :: 50.7 µM (inactive)
